- STUDY TARGET: human thrombin (Homo sapiens)
- Construct: Human α-thrombin (3,000 NIH units/mg); purchased Sigma
- TEST METHOD NOTES: Inhibition of amidolytic activity of human thrombin (fluorogenic, Tos-Gly-Pro-Arg-AMC), Ki
- Format: biochemical
- TEST PARAMETERS: Table II, various active site inhibitor segments; human thrombin 3.0×10^-11 M; read-out: Ki
pKi: −log10 of the molar value.
OBSERVATION TYPE: pKi

1 = dansyl-Arg-(D)1-amino cyclohexane carboxylic acid-(12-aminododecanoic acid)-4-aminobutyric acid)-Asp-Phe-Glu-Glu-Ile-Pro-Glu-Glu-Tyr-Leu-Gln-OH [Peptide P473]
2 = benzyl sulfonyl-Arg-(D-Pipecolic acid)-(12-aminododecanoic acid)-4-aminobutyric acid)-Asp-Phe-Glu-Glu-Ile-Pro-Glu-Glu-Tyr-Leu-Gln-OH [Peptide P556]
In the pair 1 and 2 , the larger recorded pKi belongs to which? Lab log: write the label of the selected item as the result.
2
(2: 9.86, 1: 7.44)

* * *

// reported Dose to achieve patency at 60 min. per item
- Test system: carotid injury-induced thrombosis
- TEST METHOD NOTES: FeCl3 induced arterial injury model (carotid injury-induced thrombosis)
- Format: in vivo
- TEST PARAMETERS: rat, patency defined by no drop in vessel temperature

SUBSTANCE | Dose to achieve patency at 60 min.
tert-butylbezenesulfonyl-Arg (D-Pipecolic acid)-(12-aminododecanoic acid)-4-aminobutyric acid)-Asp-Phe-Glu-Pro-Ile-Pro-Tyr-OH [BCH-2443] | > 4 mg/kg i.v. bolus
α-naphthyl sulfonyl-Arg-(D-Pipecolic acid)-(12-aminododecanoic acid)-4-aminobutyric acid)-Asp-Phe-Glu-Glu-Ile-Pro-Glu-Glu-Tyr-Leu-Gln-OH [Peptide P531] | > 2 mg/kg i.v. bolus
tert-butylbezenesulfonyl-Arg (D-Pipecolic acid)-(12-aminododecanoic acid)-4-aminobutyric acid)-Asp-Phe-Glu-Pro-Ile-Pro-Tyr-OH [BCH-2736] | > 4 mg/kg i.v. bolus
α-naphthyl sulfonyl-arginyl D-pipecolic acid-(12-aminododecanoic acid)-4-aminobutyric acid)-Asp-Tyr-Glu-Pro-Ile-Pro-Glu-Glu-Ala-(L-β-cyclohexylalanine)-(D- Glu)-OH [Peptide P581] | 1 mg/kg i.v. bolus
β-naphthyl sulfonyl-Arg-(D-Pipecolic acid)-(12-aminododecanoic acid)-4-aminobutyric acid)-Asp-Phe-Glu-Glu-Ile-Pro-Glu-Glu-Tyr-Leu-Gln-OH [Peptide P532] | 1-2 mg/kg i.v. bolus

Name the recorded Dose to achieve patency at 60 min. of the substance listed here: β-naphthyl sulfonyl-arginyl D-pipecolic acid-(12-aminododecanoic acid)-4-aminobutyric acid)-Asp-Tyr-Glu-Pro-Ile-Pro-Glu-Glu-Ala-(L-β-cyclohexylalanine)-(D- Glu)-OH [Peptide P551]
1-2 mg/kg i.v. bolus

* * *

- STUDY TARGET: human thrombin (Homo sapiens, UniProt P00734)
- Construct: Human α-thrombin (3,000 NIH units/mg); purchased Sigma
- TEST METHOD NOTES: Fibrin clotting assay
- Type: biochemical
- TEST PARAMETERS: Table V; concentration to double the clotting time; read-out: IC50 (dtt)
OBSERVATION TYPE: IC50 (nM)

I = tert-butylbezenesulfonyl-Arg (D-Pipecolic acid)-(12-aminododecanoic acid)-4-aminobutyric acid)-Asp-Phe-Glu-Pro-Ile-Pro-Tyr-OH [BCH-2443]
II = 2,4,6 triisopropylbenzensulfonyl-Arg (D-Pipecolic acid)-(12-aminododecanoicacid)-4-aminobutyric acid)-Asp-Phe-Glu-Pro-Ile-Pro-Tyr-OH [BCH-2444]
III = 4-bromobenzenesulfonyl-Arg (D-Pipecolic acid)-(12-aminododecanoic acid)-4-aminobutyric acid)- Asp-Phe-Glu-Pro-Ile-Pro-Tyr-OH [BCH-2733]
IV = tert-butylbezenesulfonyl-Arg (D-Pipecolic acid)-(12-aminododecanoic acid)-4-aminobutyric acid)-Asp-Phe-Glu-Pro-Ile-Pro-Tyr-OH [BCH-2736]
Place the item with the largest IC50 first, then continue in falling order, using the list above. Use the labels to give the ranking in the order requested.
IV, II, I, III
(IV: 1100 nM, II: 55 nM, I: 12 nM, III: 4.1 nM)
